# credit: ChEMBL document CHEMBL5346924

# maps each entry to its GI50
- Tested on: HCT-116
- ASSAY NOTES: Antiproliferative activity against human HCT-116 cells harboring KRAS G13D mutant assessed as cell growth inhibition preincubated with compound for 1 hrs followed by UV irradiation for 5 mins and measured 72 hrs post compound treatment by CellTiter-Glo luminescent assay
- Type: functional
- DETAILS: HCT-116, light or radiation study
Respond with the bare value in nM.

{"columns": ["COMPOUND", "MEASURED NUMBER"],
 "data": [
  ["O=[N+]([O-])c1cc2c(cc1CO/C(=N\\OC[C@H](O)CO)c1ccc(F)c(F)c1Nc1ccc(I)cc1F)OCO2", 236],
  ["CC(O/C(=N\\OC[C@H](O)CO)c1ccc(F)c(F)c1Nc1ccc(I)cc1F)c1cc2c(cc1[N+](=O)[O-])OCO2 (stereo partly specified)", 169],
  ["CCN(CC)c1ccc2c(CO/C(=N\\OC[C@H](O)CO)c3ccc(F)c(F)c3Nc3ccc(I)cc3F)cc(=O)oc2c1", 1750],
  ["COc1cc(CO/C(=N\\OC[C@H](O)CO)c2ccc(F)c(F)c2Nc2ccc(I)cc2F)c([N+](=O)[O-])cc1OC", 1050],
  ["O=C(NOC[C@H](O)CO)c1ccc(F)c(F)c1Nc1ccc(I)cc1F", 52.5]
]}

Next, consider the following compound.
In: Which value of GI50 has been reported for COc1cc(C(C)O/C(=N\OC[C@H](O)CO)c2ccc(F)c(F)c2Nc2ccc(I)cc2F)c([N+](=O)[O-])cc1OC (stereo partly specified) in the records?
Out: 60
